Numbers sourced from patent US20250163104A1.

- System under test: human PD-1 / PD-L1-Ig binding on Jurkat cell line over-expressing human PD-1 (Jurkat-PD-1) (Homo sapiens)
- Construct: expressed in transfected cells; host or cells: Jurkat
- Protocol text: Jurkat-PD-1 Cell Binding High-Content Screening Assay (CBA)
- Type: cell-based
- Measurement conditions: Jurkat-PD-1 cells, PE-labeled PD-L1-Ig 20 nM final; read-out: Jurkat HPD1_PDL1 IC50
Where a SMILES comes first, the peptide text is derived from it. Bridges are numbered along the chain shown (N, C = ends). [ ]: non-standard residue; d: D form. Bip = N[C@@H](Cc1ccc(-c2ccccc2)cc1)C(=O)O; 4Pal = N[C@@H](Cc1ccncc1)C(=O)O; Cha = N[C@@H](CC1CCCCC1)C(=O)O; Dap = NC[C@H](N)C(=O)O
Give measured IC50 for each item. Keep answers brief.
One number for each entry, in nM.

Compound	Measure unit	IC50
CC(C)C[C@@H]1NC(=O)[C@H](Cc2c[nH]c3ccccc23)NC(=O)[C@H](CC(=O)O)NC(=O)[C@H](Cc2ccncc2)NC(=O)[C@H](CN)NC(=O)CSC[C@@H](C(=O)NCC(N)=O)NC(=O)[C@H](CO)NC(=O)[C@H](C(C)C)NC(=O)[C@H](CC2CCCCC2)NC(=O)[C@H](CC(N)=O)NC(=O)[C@@H](CC(C)C)NC(=O)[C@H](CN)NC(=O)[C@H](C(C)C)NC(=O)[C@H](Cc2ccc(-c3ccccc3)cc2)NC1=O [Compound 1395] ({CH2CO}-[Dap][4Pal]DWL[Bip]V[Dap][dL]N[Cha]VSCG-NH2; thioether N-14)	nM	10.1

# input for lookup
Using the record for `CC(C)C[C@H]1NC(=O)[C@H](CCCN)NC(=O)[C@H](C(C)C)NC(=O)[C@H](Cc2ccc(-c3ccccc3)cc2)NC(=O)[C@H](C(C)C)NC(=O)[C@H](Cc2c[nH]c3ccccc23)NC(=O)[C@H](CC(=O)O)NC(=O)[C@H](Cc2ccc(C(=O)O)cc2)NC(=O)[C@H](Cc2ccc(OCC(=O)O)cc2)NC(=O)CSC[C@@H](C(=O)N[C@@H](C)C(N)=O)NC(=O)[C@H]([C@@H](C)O)NC(=O)[C@H](C(C)C)NC(=O)[C@H](Cc2cccc(F)c2)NC(=O)[C@H](CCN)NC1=O` , report its IC50. 13.6

---

- System under test: human PD-1 / PD-L1-Ig binding on Jurkat cell line over-expressing human PD-1 (Jurkat-PD-1) (Homo sapiens, UniProt Q15116)
- Construct: expressed in transfected cells; host or cells: Jurkat
- Sequence (Q15116 25-288): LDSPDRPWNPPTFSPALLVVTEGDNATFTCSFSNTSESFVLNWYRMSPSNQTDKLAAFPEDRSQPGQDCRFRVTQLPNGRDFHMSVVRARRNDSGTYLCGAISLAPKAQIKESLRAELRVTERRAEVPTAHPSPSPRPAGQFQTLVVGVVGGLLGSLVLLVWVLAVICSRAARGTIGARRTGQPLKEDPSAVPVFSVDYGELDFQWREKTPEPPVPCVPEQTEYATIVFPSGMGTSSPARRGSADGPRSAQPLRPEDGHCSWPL
- Protocol text: Jurkat-PD-1 Cell Binding High-Content Screening Assay (CBA)
- Assay type: cell-based
- Measurement conditions: Jurkat-PD-1 cells, PE-labeled PD-L1-Ig 20 nM final; read-out: Jurkat HPD1_PDL1 IC50
Where a SMILES comes first, the peptide text is derived from it. Bridges are numbered along the chain shown (N, C = ends). [ ]: non-standard residue; d: D form. Bip = N[C@@H](Cc1ccc(-c2ccccc2)cc1)C(=O)O; Cit = NC(=O)NCCC[C@H](N)C(=O)O; Orn = NCCC[C@H](N)C(=O)O; Dab = NCC[C@H](N)C(=O)O; Dap = NC[C@H](N)C(=O)O
Give measured pIC50 for each item. Keep answers brief.
Give bare numbers, as −log10 of the molar value.

Compound	pIC50
CC(C)C[C@@H]1NC(=O)[C@H](CCN)NC(=O)[C@@H](CC(C)C)NC(=O)[C@H](CCCN)NC(=O)[C@H](CCCNC(N)=O)NC(=O)[C@H](Cc2ccc(-c3ccccc3)cc2)NC(=O)[C@H](C(C)C)NC(=O)[C@H](Cc2c[nH]c3ccccc23)NC(=O)[C@H](CC(N)=O)NC(=O)[C@H](Cc2ccc(O)cc2)NC(=O)[C@H](CN)NC(=O)CSC[C@@H](C(=O)N[C@@H](C)C(N)=O)NC(=O)[C@H]([C@@H](C)O)NC(=O)[C@H](C(C)C)NC1=O [Compound 1088] ({CH2CO}-[Dap]YNWV[Bip][Cit][Orn][dL][Dab]LVTCA-NH2; thioether N-14)	7.63

Using the record for CC(C)C[C@@H]1NC(=O)[C@H](CCN)NC(=O)[C@@H](CC(C)C)NC(=O)[C@H](CCN)NC(=O)[C@H](C(C)C)NC(=O)[C@H](Cc2ccc(-c3ccccc3)cc2)NC(=O)[C@H](C(C)C)NC(=O)[C@H](Cc2c[nH]c3ccccc23)NC(=O)[C@H](CC(N)=O)NC(=O)[C@H](Cc2ccc(O)cc2)NC(=O)[C@H](CC(N)=O)NC(=O)CSC[C@@H](C(=O)NCC(N)=O)NC(=O)[C@H]([C@@H](C)O)NC(=O)[C@H](C(C)C)NC1=O [Compound 1086] ({CH2CO}-NYNWV[Bip]V[Dab][dL][Dab]LVTCG-NH2; thioether N-14) , report its pIC50. 7.69

---

- System under test: human PD-1 / PD-L1-Ig binding on Jurkat cell line over-expressing human PD-1 (Jurkat-PD-1) (Homo sapiens)
- Construct: expressed in transfected cells; host or cells: Jurkat
- Protocol text: Jurkat-PD-1 Cell Binding High-Content Screening Assay (CBA)
- Type: cell-based
- Measurement conditions: Jurkat-PD-1 cells, PE-labeled PD-L1-Ig 20 nM final; read-out: Jurkat HPD1_PDL1 IC50
Where a SMILES comes first, the peptide text is derived from it. Bridges are numbered along the chain shown (N, C = ends). [ ]: non-standard residue; d: D form. Phe(3-COOH) = N[C@@H](Cc1cccc(C(=O)O)c1)C(=O)O; Bip = N[C@@H](Cc1ccc(-c2ccccc2)cc1)C(=O)O; Cha = N[C@@H](CC1CCCCC1)C(=O)O; Orn = NCCC[C@H](N)C(=O)O; Dab = NCC[C@H](N)C(=O)O; Dap = NC[C@H](N)C(=O)O
Measured parameter: pIC50
Numbers only, as −log10 of the molar value.

Compound	pIC50
CC(C)C[C@@H]1NC(=O)[C@H](Cc2c[nH]c3ccccc23)NC(=O)[C@H](CC(=O)O)NC(=O)[C@H](Cc2cccc(C(=O)O)c2)NC(=O)[C@H](CN)NC(=O)CSC[C@@H](C(=O)NCC(N)=O)NC(=O)[C@H](CO)NC(=O)[C@H](C(C)C)NC(=O)[C@H](CC2CCCCC2)NC(=O)[C@H](CCN)NC(=O)[C@@H](CC(C)C)NC(=O)[C@H](CCCN)NC(=O)[C@H](C(C)C)NC(=O)[C@H](Cc2ccc(-c3ccccc3)cc2)NC1=O [Compound 2021] ({CH2CO}-[Dap][Phe(3-COOH)]DWL[Bip]V[Orn][dL][Dab][Cha]VSCG-NH2; thioether N-14)	7.82

# input for lookup
Using the record for Cc1ccc(C[C@@H]2NC(=O)[C@H](CC(=O)O)NC(=O)[C@H](Cc3ccc(OCC(=O)O)cc3)NC(=O)[C@H](CN)NC(=O)CSC[C@@H](C(=O)N[C@@H](C)C(N)=O)NC(=O)[C@H]([C@@H](C)O)NC(=O)[C@H](C(C)C)NC(=O)[C@H](CC3CCCCC3)NC(=O)[C@H](CCN)NC(=O)[C@@H](CC(C)C)NC(=O)[C@H](CCCN)NC(=O)[C@H](CCC(=O)O)NC(=O)[C@H](Cc3ccc(-c4ccccc4)cc3)NC(=O)[C@H](C(C)C)NC2=O)cc1 [Compound 2139] , report its pIC50. 7.15

---

- System under test: human PD-1 / PD-L1-Ig binding on Jurkat cell line over-expressing human PD-1 (Jurkat-PD-1) (Homo sapiens)
- Construct: expressed in transfected cells; host or cells: Jurkat
- Protocol text: Jurkat-PD-1 Cell Binding High-Content Screening Assay (CBA)
- Assay type: cell-based
- Measurement conditions: Jurkat-PD-1 cells, PE-labeled PD-L1-Ig 20 nM final; read-out: Jurkat HPD1_PDL1 IC50
Where a SMILES comes first, the peptide text is derived from it. Bridges are numbered along the chain shown (N, C = ends). [ ]: non-standard residue; d: D form. The star is where a group is joined. Bip = N[C@@H](Cc1ccc(-c2ccccc2)cc1)C(=O)O; Carboxymethyl = O=C(O)C*; Orn = NCCC[C@H](N)C(=O)O; Dab = NCC[C@H](N)C(=O)O; Dap = NC[C@H](N)C(=O)O
Give measured pIC50 for each item. Keep answers brief.
Give bare numbers, as −log10 of the molar value.

Worked cases, pIC50 given:
Compound	Reading
COc1cccc(C[C@@H]2NC(=O)[C@H](CC(=O)O)NC(=O)[C@H](Cc3ccc(C(=O)O)cc3)NC(=O)[C@H](Cc3ccc(OCC(=O)O)cc3)NC(=O)CSC[C@@H](C(=O)N[C@@H](C)C(N)=O)NC(=O)[C@H]([C@@H](C)O)NC(=O)[C@H](C(C)C)NC(=O)[C@H](CC3CCCCC3)NC(=O)[C@H](CCN)NC(=O)[C@@H](CC(C)C)NC(=O)[C@H](CCCN)NC(=O)[C@H](CCC(=O)O)NC(=O)[C@H](Cc3ccc(-c4ccccc4)cc3)NC(=O)[C@H](C(C)C)NC2=O)c1	7.78
CC(C)C[C@@H]1NC(=O)[C@H](Cc2c[nH]c3ccccc23)NC(=O)[C@H](CC(=O)O)NC(=O)[C@H](Cc2ccc(OCC(=O)O)cc2)NC(=O)[C@H](CN)NC(=O)CSC[C@@H](C(=O)NCC(N)=O)NC(=O)[C@H](CO)NC(=O)[C@H](C(C)C)NC(=O)[C@H](CC(C)C)NC(=O)[C@H](CCN)NC(=O)[C@@H](CC(C)C)NC(=O)[C@H](CCCN)NC(=O)[C@H](C(C)C)NC(=O)[C@H](Cc2ccc(-c3ccccc3)cc2)NC1=O [Compound 1257] ({CH2CO}-[Dap]Y(Carboxymethyl)DWL[Bip]V[Orn][dL][Dab]LVSCG-NH2; thioether N-14)	8.25
CC(C)C[C@@H]1NC(=O)[C@H](CCN)NC(=O)[C@@H](CC(C)C)NC(=O)[C@H](CCN)NC(=O)[C@H](C(C)C)NC(=O)[C@H](Cc2ccc(-c3ccccc3)cc2)NC(=O)[C@H](C(C)C)NC(=O)[C@H](Cc2c[nH]c3ccccc23)NC(=O)[C@H](CC(N)=O)NC(=O)[C@H](Cc2ccc(O)cc2)NC(=O)[C@H](CC(N)=O)NC(=O)CSC[C@@H](C(=O)NCC(N)=O)NC(=O)[C@H](CO)NC(=O)[C@H](C(C)C)NC1=O [Compound 1083] ({CH2CO}-NYNWV[Bip]V[Dab][dL][Dab]LVSCG-NH2; thioether N-14)	7.77

# input for lookup
Using the record for CC(C)C[C@@H]1NC(=O)[C@H](CCCCN)NC(=O)[C@@H](CC(C)C)NC(=O)[C@H](CCCN)NC(=O)[C@H](Cc2cnc[nH]2)NC(=O)[C@H](Cc2ccc(-c3ccccc3)cc2)NC(=O)[C@H](C(C)C)NC(=O)[C@H](Cc2c[nH]c3ccccc23)NC(=O)[C@H](CC(=O)O)NC(=O)[C@H](Cc2ccc(O)cc2)NC(=O)[C@H](CC(N)=O)NC(=O)CSC[C@@H](C(=O)NCC(N)=O)NC(=O)[C@H]([C@@H](C)O)NC(=O)[C@H](C(C)C)NC1=O [Compound 1136] ({CH2CO}-NYDWV[Bip]H[Orn][dL]KLVTCG-NH2; thioether N-14) , report its pIC50. 7.29
